These data points were gathered from the supplement of paper PMC6965134.

protocol.description: TIMS collisional cross section (CCS, N2) of the lipid ion; higher = larger ion cross section
measurement.parameters: sample type: plasma; ionization mode: positive; one isomer drawn
readout.type: TIMS collisional cross section (Å²)

molecule="CCCCC/C=C\\C/C=C\\CCCCCCCC(=O)O[C@H](CO/C=C\\CCCCCCCCCCCCCC)COP(=O)(O)OCCN [PE P- 16:0@_18:2] (ion (formula + adduct): [C39H74NO7P+H] 1+)" recorded_result=270.6
molecule="CCCCCCCCCCC/C=C\\CCCCC(=O)O[C@H](CO)COP(=O)([O-])OCC[N+](C)(C)C [LPC 18:1] (ion (formula + adduct): [C26H52NO7P+H] 1+)" recorded_result=231.9
molecule="CCCCC/C=C\\C/C=C\\C/C=C\\CCCCCCC(=O)OC[C@@H](O)COP(=O)([O-])OCC[N+](C)(C)C [LPC 20:3] (ion (formula + adduct): [C28H52NO7P+H] 1+)" recorded_result=232.57
molecule="CCCCC/C=C\\C/C=C\\C/C=C\\C/C=C\\CCCC(=O)OC[C@@H](COC(=O)CCCCCCCCCCCCCCC)OC(=O)CCCCCCC/C=C\\CCCCCCCC [TG 16:0_18:1_20:4] (ion (formula + adduct): [C57H100O6+NH4] 1+)" recorded_result=324.2
molecule="CCCCCCCCCCCCC/C=C/[C@@H](O)[C@H](COP(=O)([O-])OCC[N+](C)(C)C)NC(=O)CCCCCCCCCCCCCCCCCCCCCCC [SM d18:1_24:0@] (ion (formula + adduct): [C47H95N2O6P+H] 1+)" recorded_result=308.1
